# Test method notes: chemical genetic growth profiling, strain panel (AID 1159580);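 further: tested at 20 µM; growth read once vehicle control cultures reached saturation at 30 °C; 1 = growth at the plate median or of vehicle wells; lower values mean less growth of the strain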
# Study conditions: S. cerevisiae deletion strains, growth OD, locus YDL185W, strain tfp1, stronger effect = lower value
About 2,000 (36%) of roughly 5,500 compounds were called active. Inconclusive results (about 18%) are left out. The list shows a part of the results.
Quick reference for normalized growth among some compounds

Compound: N[C@@H](C(=O)O)[C@@H](O)[C@H](O)[C@H](O)CO
normalized growth: 1.02
//
Compound: CC(=O)O[C@H]1CC[C@@]2(C)C(C[C@@H](OC(C)=O)[C@]3(C)C2CC[C@@]2(C)[C@H](c4ccoc4)OC(=O)[C@H]4O[C@]423)C1(C)C (stereo partly specified)
normalized growth: 1.01
//
Compound: O=C(O)COc1ccc(Cl)cc1Cl
normalized growth: 1.02
//
Compound: CC(=O)C1CCC2C3CCC4C[C@H](O)CCC4(C)C3C[C@H](O)C12C (stereo partly specified)
normalized growth: 0.999
//
Compound: Cc1nnc(NS(=O)(=O)c2ccc(N)cc2)s1
normalized growth: 1
//
Compound: COc1cc(OC)c2c(=O)cc(-c3ccccc3)oc2c1
normalized growth: 0.951
//
Compound: Oc1c(Cl)cc(Cl)c(Cl)c1Cc1c(O)c(Cl)cc(Cl)c1Cl
normalized growth: 0.0761
//
Compound: CC(C)=CC1C(C(=O)OCc2cccc(Oc3ccccc3)c2)C1(C)C (stereo unspecified)
normalized growth: 0.968
//
Compound: C[C@]12CCC3c4ccc(O)cc4CCC3C1CCC2=O (stereo partly specified)
normalized growth: 0.96
//
Compound: CC(=O)O[C@H]1C[C@@]2(C)[C@@H](C[C@@H](O)C3[C@]2(C)CC[C@H]2[C@H](C)[C@H](O)CC[C@]32C)/C1=C(/CCC=C(C)C)C(=O)O (stereo partly specified)
normalized growth: 1.01
//
Compound: CC12CCC3C(=CCc4cc(O)ccc43)C1CCC2=O (stereo unspecified)
normalized growth: 1.01
//
Compound: CN(C)C(=O)Oc1ccc[n+](C)c1
normalized growth: 1.01
//
Compound: CC(C)(S)[C@@H](N)C(=O)O
normalized growth: 0.988
//
Compound: NC(N)=NCCN1CCCCCCC1
normalized growth: 1.01
//
Compound: CC1OC(O[C@H]2/C=C/C=C/C=C/C=C/C=C/C=C/C=C/[C@H](C)[C@@H](O)[C@@H](C)[C@H](C)OC(=O)CC(O)CC(O)CCC(O)C(O)CC(O)C[C@]3(O)C[C@H](O)C(C(=O)O)C(C2)O3)C(O)[C@H](N)C1O (stereo partly specified)
normalized growth: 1.04
//
Compound: O=C(O)C(O)C(O)C(=O)O (stereo unspecified)
normalized growth: 0.966
//
Compound: C=C[C@@]1(C)CC(=O)[C@@]2(O)[C@](C)(O1)[C@@H](OC(C)=O)[C@@H](O)C1C(C)(C)CC[C@H](O)[C@@]12C (stereo partly specified)
normalized growth: 0.986
//
Compound: Clc1ccc(COC(Cn2ccnc2)c2ccc(Cl)cc2Cl)c(Cl)c1 (stereo unspecified)
normalized growth: 0.0554
//
Compound: CC1[C@H](C)OC(=O)CC(O)CC(O)CC(O)CCC(O)C(O)C[C@]2(O)CC(O)C(C(=O)O)C(CC(OC3O[C@H](C)[C@@H](O)[C@H](N)[C@@H]3O)/C=C/C=C/C=C/C=C/CC/C=C/C=C/[C@H](C)[C@H]1O)O2 (stereo partly specified)
normalized growth: 0.0687
//
Compound: CC(C)/C(O)=C1/C(=O)O[C@@H](c2ccoc2)[C@]2(C)C(O)[C@@H](O)[C@@]34OC5(C)OC67CC(C)(C(O)[C@]6(O)[C@@H](O)[C@]3(O5)C12)[C@H](CC(=O)O)[C@]74C (stereo partly specified)
normalized growth: 1.02
//
Compound: NC(C(=O)O)C(O)C(=O)O (stereo unspecified)
normalized growth: 1.02
//
Compound: COc1ccc(-c2cc(=O)c3c(OC)cc(OC)cc3o2)cc1
normalized growth: 0.996
//
Compound: C[C@]12CCC3c4ccc(OC(=O)CCC(=O)O)cc4CCC3C1CCC2=O (stereo partly specified)
normalized growth: 0.951
//
Compound: O=c1oc2ccccc2cc1O
normalized growth: 0.998
//
Compound: FC(F)(F)c1cccc(N2CCNCC2)c1
normalized growth: 0.994
//
Compound: CC(=O)Oc1ccc2c(c1)CCC1C2CC[C@]2(C)C(=O)CCC12 (stereo partly specified)
normalized growth: 1
//
Compound: NC(N)=NCCCCN=C(N)N
normalized growth: 0.968
//
Compound: CC(=O)C1CC[C@H]2C3CC[C@H]4C[C@H](O)CC[C@]4(C)C3CC[C@]12C (stereo partly specified)
normalized growth: 0.989
//
Compound: NCCCCC(=O)O
normalized growth: 0.995
//
Compound: C[C@]12CCC3c4ccc(OC(=O)c5ccccc5)cc4CCC3C1CCC2=O (stereo partly specified)
normalized growth: 0.951
//
Compound: COc1ccc2oc3ccccc3c(=O)c2c1
normalized growth: 0.809
//
Compound: CN[C@@H]1C(OC2[C@H](O[C@H]3[C@H](O)[C@@H](O)[C@H](N=C(N)N)[C@@H](O)[C@@H]3N=C(N)N)OC(C)[C@]2(O)CO)OC(CO)C(O)C1O (stereo partly specified)
normalized growth: 0.984
//
Compound: NCCCCCC(=O)O
normalized growth: 1.01
//
Compound: COC[C@]12CN(C=O)C3[C@@H]4[C@H](OC)C1[C@]3(C1CC3(O)C(OC)C(O)C4(OC(C)=O)C1C3OC(=O)c1ccccc1)[C@@H](OC)C[C@H]2O (stereo partly specified)
normalized growth: 1.01
//
Compound: COc1cc(C)c2c(=O)cc(-c3ccccc3)oc2c1
normalized growth: 0.979
//
Compound: CC(=O)O[C@@H]1CC2C(C)(C)[C@H](O)CC[C@]2(C)C2CC[C@@]3(C)[C@H](c4ccoc4)OC(=O)C4OC43[C@@]21C (stereo partly specified)
normalized growth: 0.97

----------
Quick reference for normalized growth among some compounds
# Test method notes: chemical genetic growth profiling, strain panel (AID 1159580);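 further: tested at 20 µM; growth read once vehicle control cultures reached saturation at 30 °C; 1 = growth at the plate median or of vehicle wells; lower values mean less growth of the strain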
# Study conditions: S. cerevisiae deletion strains, growth OD, locus YLL041C, strain sdh2, stronger effect = lower value
Hit rate of the full screen: of about 5,500 compounds, about 2,000 (36%) were called active. About 18% were inconclusive and are not listed. Some of the results follow.

Compound: CC1(C)C(=O)[C@@H]2O[C@@H]2[C@@]2(C)C1C[C@@H](O)[C@]1(C)C2CC[C@@]2(C)[C@H](c3ccoc3)OC(=O)C3OC321 (some centres undefined)
normalized growth: 0.999
//
Compound: NC(=O)CS(=O)C(c1ccccc1)c1ccccc1 (centres undefined)
normalized growth: 1
//
Compound: CC(=O)O[C@H]1C[C@@H](OC(C)=O)C(C)(C)C2C[C@@H](OC(C)=O)[C@]3(C)C(CC[C@@]4(C)[C@H](c5ccoc5)OC(=O)[C@H]5O[C@]543)[C@]21C (some centres undefined)
normalized growth: 0.987
//
Compound: C=C[C@@]1(C)CC(=O)[C@@]2(O)[C@](C)(O1)[C@@H](OC(C)=O)[C@@H](O)C1C(C)(C)CC[C@H](O)[C@@]12C (some centres undefined)
normalized growth: 0.969
//
Compound: COc1cc(NS(C)(=O)=O)ccc1Cc1c2ccccc2nc2ccccc12
normalized growth: 0.99
//
Compound: CN(C)CCC(c1ccccc1)c1ccccn1 (centres undefined)
normalized growth: 1.02
//
Compound: COc1ccc2nc(S(=O)Cc3ncc(C)c(OC)c3C)[nH]c2c1 (centres undefined)
normalized growth: 1.02
//
Compound: COc1ccc(-c2oc3cc(OC)c(OC)c(OC)c3c(=O)c2OC)cc1
normalized growth: 0.985
//
Compound: Cc1cccc(C)c1NC(=O)C1CCCCN1C (centres undefined)
normalized growth: 1
//
Compound: Clc1ccc(CO/N=C(/Cn2ccnc2)c2ccc(Cl)cc2Cl)c(Cl)c1
normalized growth: 0.0619
//
Compound: CC(=O)O[C@H]1C[C@@]2(C)[C@@H](C[C@@H](O)C3[C@]2(C)CC[C@H]2[C@H](C)[C@H](O)CC[C@]32C)/C1=C(/CCC=C(C)C)C(=O)O (some centres undefined)
normalized growth: 1.02
//
Compound: O=NN(CCCl)C(=O)NCCCl
normalized growth: 0.957
//
Compound: CC(=O)C1CC[C@H]2C3CC[C@H]4C[C@H](O)CC[C@]4(C)C3CC[C@]12C (some centres undefined)
normalized growth: 0.997
//
Compound: O=C(O)CCC1NCC2CC1CN1CCCCC21 (centres undefined)
normalized growth: 0.987
//
Compound: CC1C/C=C/C=C/C=C/C=C/C(O[C@@H]2O[C@H](C)[C@@H](O)[C@H](N)[C@@H]2O)CC2OC(O)(CC(O)CC3OC3/C=C/C(=O)O1)CC(O)C2C(=O)O (some centres undefined)
normalized growth: 0.998
//
Compound: CC12CCC3C(=CCc4cc(O)ccc43)C1CCC2=O (centres undefined)
normalized growth: 0.974
//
Compound: NCCCNCCSP(=O)(O)O
normalized growth: 0.983
//
Compound: Cc1oncc1C(=O)Nc1ccc(C(F)(F)F)cc1
normalized growth: 0.958
//
Compound: COc1ccc2oc3ccccc3c(=O)c2c1
normalized growth: 0.937
//
Compound: CN1CCC[C@@H]1CCO[C@](C)(c1ccccc1)c1ccc(Cl)cc1
normalized growth: 0.992
//
Compound: COC(=O)[C@H](c1ccccc1Cl)N1CCc2sccc2C1
normalized growth: 0.991
//
Compound: Cc1onc(-c2ccccc2)c1-c1ccc(S(N)(=O)=O)cc1
normalized growth: 1
//
Compound: Clc1ccc(COC(Cn2ccnc2)c2ccc(Cl)cc2Cl)c(Cl)c1 (centres undefined)
normalized growth: 0.0595
//
Compound: CC(C)=CC1C(C(=O)OCc2cccc(Oc3ccccc3)c2)C1(C)C (centres undefined)
normalized growth: 1.02
//
Compound: Clc1ccccc1CN1CCc2sccc2C1
normalized growth: 1
//
Compound: C[C@]12C=CC(=O)C=C1CCC1C2[C@@H](O)C[C@@]2(C)C1CC[C@]2(O)C(=O)CO (some centres undefined)
normalized growth: 0.989
//
Compound: COC1C=CC23c4cc5c(cc4CN(CC2O)[C@@H]3C1)OCO5 (some centres undefined)
normalized growth: 0.969
//
Compound: CC(C)c1nc(N(C)S(C)(=O)=O)nc(-c2ccc(F)cc2)c1/C=C/[C@@H](O)C[C@@H](O)CC(=O)O
normalized growth: 0.9
//
Compound: C=NC(C(=O)NC1C(=O)N2C1SC(C)(C)C2C(=O)O)c1ccccc1 (centres undefined)
normalized growth: 0.996

Origin of the recorded values: PubChem BioAssay AID1159580
